glycan array binding signal (z-score) values for the binders below.
biological target: Fuc(a1-2)[GalNAc(a1-3)]Gal(b1-4)GlcNAc; test: glycan array binding signal (z-score within array); higher = stronger binding; settings: glycan notation: IUPAC condensed, linker removed
The sample as a whole holds a higher share of the strongest signals than the screen did.
Just the number.

[[record]]
binder = "OrysaEULS2 (Oryza sativa) (protein) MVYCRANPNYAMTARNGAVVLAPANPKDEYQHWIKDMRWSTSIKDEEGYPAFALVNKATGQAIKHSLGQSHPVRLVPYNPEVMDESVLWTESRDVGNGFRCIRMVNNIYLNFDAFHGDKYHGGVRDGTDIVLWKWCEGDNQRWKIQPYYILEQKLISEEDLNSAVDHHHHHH"
test_readout = "glycan array binding signal (z-score)"
number = -0.2


Please look at the following binder next.
Input line: State, in one line, measured glycan array binding signal (z-score) of LBL-152 (Laetiporus bicolor), B0D650 (protein) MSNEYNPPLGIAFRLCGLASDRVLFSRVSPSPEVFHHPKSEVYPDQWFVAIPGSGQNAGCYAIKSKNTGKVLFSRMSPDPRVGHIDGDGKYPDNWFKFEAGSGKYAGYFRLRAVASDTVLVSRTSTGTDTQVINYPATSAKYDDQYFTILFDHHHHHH
Output line: -0.156
